# System: E. coli NIHJ JC-2
# assayInfo: Antibacterial activity test (MIC)
# Type: cell-based
# testContext: Mueller-Hinton Broth, 37° C., 20 to 24 hours
endpoint: minimal inhibitory concentration (MIC) (µg/mL)

[I] CCCCCCCCNC1=NC(C)(C)N=C(NCCCCCC)N1.O=C(O)C(O)C(O)C(O)C(O)CO
[II] CCCCCCCC1N=C(N)N=C(N)N1c1ccc(C(C)(C)C)cc1.Cl (stereo not drawn)
[III] CC(=O)O.CCCCCCCCNC1=NC(C)(C)N=C(NCCCCCCC)N1
List from greatest to least minimal inhibitory concentration (MIC). Write the labels in rank order as requested. III, II, I

[A] CCCCCCCCNC1=NC(C)(C)N=C(Nc2cccc3ccccc23)N1
[B] CC(=O)O.CCCCCCCNC1=NC(C)(C)N=C(NC(C)(C)CC(C)(C)C)N1
Out of A and B , name the one with the higher minimal inhibitory concentration (MIC). Write down the label of the entry you select. B
(B: 100 µg/mL, A: 25 µg/mL)

All values here come from patent US7622469B2.
